From: paper PMC6072243

pIC50: −log10 of the molar value.
pIC50, UniProtKB Q16539, per-entry values.
measurement_label: pIC50

> print(dat)
                                   molecule  measurement.label  observed.measurement
1  CSc1nc(-c2ccc(F)cc2)c(-c2ccnc(Nc3ccc(N4CCOCC4)cc3)c2)[nH]1              pIC50                  7.77

[a] CC(C)c1nc[nH]c1-c1ccnc(Nc2ccc(N3CCOCC3)cc2)c1 [Compound 18l]
[b] c1cc(-c2[nH]cnc2C2CC2)cc(Nc2ccc(N3CCOCC3)cc2)n1 [Compound 18j]
Kindly compare a with b and tell me which has the lower pIC50 figure. The response must carry the label of the picked entry.
a

* * *

test_target: p38α MAPK (Homo sapiens, UniProt Q16539)
Sequence (Q16539 whole entry): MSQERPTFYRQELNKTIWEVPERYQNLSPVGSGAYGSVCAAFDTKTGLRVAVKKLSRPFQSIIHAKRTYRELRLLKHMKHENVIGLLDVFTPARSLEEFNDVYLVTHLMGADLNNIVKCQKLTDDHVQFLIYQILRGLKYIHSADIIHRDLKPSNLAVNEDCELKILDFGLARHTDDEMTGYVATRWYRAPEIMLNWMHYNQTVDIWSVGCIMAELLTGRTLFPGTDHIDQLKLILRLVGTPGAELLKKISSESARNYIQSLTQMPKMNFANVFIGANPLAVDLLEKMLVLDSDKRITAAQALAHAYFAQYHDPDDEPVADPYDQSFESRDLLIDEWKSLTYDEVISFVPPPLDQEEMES
assay_comment: p38α MAPK enzyme-linked immunosorbent assay
Assay type: biochemical
condition_parameters: read-out: Percent inhibition of p38α MAPK at indicated concentration
measurement_label: inhibition at 10 µM (%)

> print(dat)
                                   compound  observed.measurement
1  CCc1nc[nH]c1-c1ccnc(Nc2ccc(N3CCOCC3)cc2)c1                    34

[I] CNc1nc(-c2ccnc(Nc3ccc(N4CCOCC4)cc3)c2)c(C)s1
[II] Cn1ccnc1-c1ccnc(Nc2ccc(N3CCOCC3)cc2)c1
Which has the smaller recorded inhibition at 10 µM, I or II ? Label of pick, please.
I

[1] Cn1cncc1-c1ccnc(Nc2ccc(N3CCOCC3)cc2)c1
[2] CSc1nc(C)c(-c2ccnc(N[C@H]3CC[C@H](NC(=O)C(C)(C)C)CC3)c2)[nH]1 [Compound 48l]
[3] CSc1nc(C)c(-c2ccnc(N[C@H]3CC[C@H](N)CC3)c2)[nH]1 [Compound 48h]
List these items ordered by inhibition at 10 µM, big to small. Answer format: list of labels, ordered as asked.
3, 1, 2
(3: 46%, 1: 32%, 2: 13%)

* * *

test_target: UniProtKB P53779
assay_comment: JNK3 enzyme-linked immunosorbent assay
Assay type: biochemical
measurement_label: IC50 (nM)

Some solved entries appear below for comparison.
> print(dat)
                                    compound  measurement.label  observed.measurement
 1  c1cc(-c2[nH]cnc2C2CCCCC2)cc(Nc2ccc(N3CCOCC3)cc2)n1 [Compound 18g]               IC50                  1720
 2  c1ccc(-c2nc[nH]c2-c2ccnc(Nc3ccc(N4CCOCC4)cc3)c2)cc1 [Compound 18a]               IC50                    37
 3  Cc1nc[nH]c1-c1ccnc(Nc2ccc(N3CCOCC3)cc2)c1 [Compound 38]               IC50                   833
 4  CSc1nc(C)c(-c2ccnc(NC3CCCCC3)c2)[nH]1 [Compound 48e]               IC50                   671
 5  FC(F)(F)c1cccc(-c2nc[nH]c2-c2ccnc(Nc3ccc(N4CCOCC4)cc3)c2)c1 [Compound 18d]               IC50                   143
 6  CSc1nc(C)c(-c2ccnc(NC(C)C(C)C)c2)[nH]1 (stereo not drawn) [Compound 48a]               IC50                  2590
 7  CSc1nc(C)c(-c2ccnc(NC3CCCC3)c2)[nH]1 [Compound 48d]               IC50                  1570
 8  Oc1c2ccccc2c2c3c(cccc13)N=N2 [SP600125, reference compound]               IC50                   171
 9  CCc1nc(SC)[nH]c1-c1ccnc(Nc2ccc(N3CCOCC3)cc2)c1 [Compound 45]               IC50                  1100
10  CSc1nc(C)c(-c2ccnc(NC(C)c3ccccc3)c2)[nH]1 (stereo not drawn) [Compound 48b]               IC50                  7610

[A] CSc1nc(C)c(-c2ccnc(N[C@H]3CC[C@H](O)CC3)c2)[nH]1 [Compound 48g]
[B] CCc1nc(-c2ccc(F)cc2)c(-c2ccnc(Nc3ccc(N4CCOCC4)cc3)c2)[nH]1 [Compound 13]
[C] CSc1nc(C)c(-c2ccnc(Nc3ccc(NC(=O)C4CCCCC4)cc3)c2)[nH]1 [Compound 48p]
[D] CSc1nc(C)c(-c2ccnc(N[C@H]3CC[C@H](N)CC3)c2)[nH]1 [Compound 48h]
[E] Fc1ccc(-n2cncc2-c2ccnc(Nc3ccc(N4CCOCC4)cc3)c2)cc1 [Compound 66]
Your job: order these 5 records by IC50, ascending. Write the labels out in the order the request specifies.
B, E, A, D, C

* * *

test_target: hERG channels (Homo sapiens)
Sequence (Q12809 whole entry): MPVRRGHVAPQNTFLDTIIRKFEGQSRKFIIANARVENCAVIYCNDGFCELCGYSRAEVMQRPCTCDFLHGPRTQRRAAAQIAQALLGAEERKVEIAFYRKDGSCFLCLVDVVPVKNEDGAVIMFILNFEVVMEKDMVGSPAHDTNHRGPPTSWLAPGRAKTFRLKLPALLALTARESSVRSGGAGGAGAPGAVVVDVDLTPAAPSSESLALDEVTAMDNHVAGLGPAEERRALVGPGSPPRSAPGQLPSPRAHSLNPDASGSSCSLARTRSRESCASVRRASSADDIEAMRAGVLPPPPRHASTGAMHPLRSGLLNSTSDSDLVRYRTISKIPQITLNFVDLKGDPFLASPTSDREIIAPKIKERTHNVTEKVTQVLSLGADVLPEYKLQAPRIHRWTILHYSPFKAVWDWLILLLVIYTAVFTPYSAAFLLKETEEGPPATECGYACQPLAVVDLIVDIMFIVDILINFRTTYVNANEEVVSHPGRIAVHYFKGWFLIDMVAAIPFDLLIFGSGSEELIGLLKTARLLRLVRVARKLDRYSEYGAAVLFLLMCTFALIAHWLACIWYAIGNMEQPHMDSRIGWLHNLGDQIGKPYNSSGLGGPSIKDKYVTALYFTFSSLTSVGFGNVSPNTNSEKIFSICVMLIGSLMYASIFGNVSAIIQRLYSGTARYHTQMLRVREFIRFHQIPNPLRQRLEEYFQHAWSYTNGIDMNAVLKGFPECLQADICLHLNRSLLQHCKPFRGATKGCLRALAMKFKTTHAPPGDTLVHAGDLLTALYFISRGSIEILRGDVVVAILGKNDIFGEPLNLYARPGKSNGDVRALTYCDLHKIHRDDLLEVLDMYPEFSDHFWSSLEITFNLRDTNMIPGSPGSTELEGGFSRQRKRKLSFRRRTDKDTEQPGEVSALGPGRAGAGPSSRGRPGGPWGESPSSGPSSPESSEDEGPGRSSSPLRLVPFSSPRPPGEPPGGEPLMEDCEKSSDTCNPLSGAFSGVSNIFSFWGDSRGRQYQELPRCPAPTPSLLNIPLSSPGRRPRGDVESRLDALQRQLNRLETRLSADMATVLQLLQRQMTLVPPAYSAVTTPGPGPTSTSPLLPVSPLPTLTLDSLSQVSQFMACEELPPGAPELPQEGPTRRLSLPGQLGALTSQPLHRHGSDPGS
measurement_label: IC50

Consider the molecule shown here: `CSc1nc(C)c(-c2ccnc(Nc3ccc(N4CCOCC4)cc3)c2)[nH]1` What is its recorded IC50?
> 10 µM

* * *

Observed IC50 values for p38α MAPK (Homo sapiens) are listed in what follows.

> print(dat)
                                   compound  measurement.label  observed.measurement
1  CSc1nc(C)c(-c2ccnc(N[C@H]3CC[C@H](NC(C)=O)CC3)c2)[nH]1 [Compound 48i]               IC50               > 10 µM

Query (compound): CSc1nc(C)c(-c2ccnc(N[C@H]3CC[C@H](NC(=O)c4ccccc4)CC3)c2)[nH]1 [Compound 48j] ; field requested: IC50
> 10 µM

Same question, CSc1nc(C)c(-c2ccnc(N[C@H]3CC[C@H](NC(=O)C4CCCCC4)CC3)c2)[nH]1 [Compound 48k] this time
> 10 µM

Request: CSc1nc(C)c(-c2ccnc(Nc3ccc(N)cc3)c2)[nH]1 [Compound 48m]
> 10 µM

What about this compound? `O=c1[nH]c(-c2ccc(F)cc2)c(-c2ccnc(Nc3ccc(N4CCOCC4)cc3)c2)[nH]1`
0.034 µM

And for `CSc1nc(-c2ccnc(Nc3ccc(N4CCOCC4)cc3)c2)c(C)n1C` ?
> 10 µM

Request: `Cn1ccnc1-c1ccnc(Nc2ccc(N3CCOCC3)cc2)c1`
> 10 µM

And the next one, `CCc1nc(SC)[nH]c1-c1ccnc(Nc2ccc(N3CCOCC3)cc2)c1` ?
> 10 µM

Moving on to CSc1nc(C)c(-c2ccnc(NC3CCOCC3)c2)[nH]1 [Compound 48f]
> 10 µM

Also need CSc1nc(C)c(-c2ccnc(NC(C)C(C)C)c2)[nH]1 (stereo not drawn) [Compound 48a] , thanks.
> 10 µM

`CSc1nc(C)c(-c2ccnc(Nc3ccc(N4CCOCC4)cc3)c2)[nH]1` , same question.
> 10 µM

Would you kindly repeat that for Cn1cc(-c2nc[nH]c2-c2ccnc(Nc3ccc(N4CCOCC4)cc3)c2)cn1 [Compound 18f] ?
3.26 µM

* * *

test_target: JNK3 (Homo sapiens, UniProt P53779)
Sequence (P53779 whole entry): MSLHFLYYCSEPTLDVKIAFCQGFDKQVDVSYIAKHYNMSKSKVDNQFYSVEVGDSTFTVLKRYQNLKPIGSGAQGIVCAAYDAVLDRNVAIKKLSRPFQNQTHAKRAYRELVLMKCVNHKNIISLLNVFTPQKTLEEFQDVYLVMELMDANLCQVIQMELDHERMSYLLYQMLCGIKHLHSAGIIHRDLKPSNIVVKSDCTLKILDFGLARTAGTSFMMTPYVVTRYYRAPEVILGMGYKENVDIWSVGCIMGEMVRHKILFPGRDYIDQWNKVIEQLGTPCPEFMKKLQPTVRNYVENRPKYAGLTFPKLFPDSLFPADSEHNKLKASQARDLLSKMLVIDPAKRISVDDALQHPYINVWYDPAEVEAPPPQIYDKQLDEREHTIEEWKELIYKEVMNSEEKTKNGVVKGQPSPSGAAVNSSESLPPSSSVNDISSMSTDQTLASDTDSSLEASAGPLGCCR
assay_comment: JNK3 enzyme-linked immunosorbent assay
Assay type: biochemical
pIC50: −log10 of the molar value.
measurement_label: pIC50

> print(dat)
                                   compound                          test.target  observed.measurement
1  CSc1nc(-c2ccnc(Nc3ccc(N4CCOCC4)cc3)c2)c(C)n1C  JNK3 (Homo sapiens, UniProt P53779)                  5.89
2  CSc1nc(C)c(-c2ccnc(Nc3ccc(N4CCOCC4)cc3)c2)[nH]1  JNK3 (Homo sapiens, UniProt P53779)                  6.44

[a] c1cc(-c2[nH]cnc2C2CCC2)cc(Nc2ccc(N3CCOCC3)cc2)n1 [Compound 18i]
[b] CNc1nc(-c2ccc(F)cc2)c(-c2ccnc(Nc3ccc(N4CCOCC4)cc3)c2)s1
[c] O=c1[nH]c(-c2ccc(F)cc2)c(-c2ccnc(Nc3ccc(N4CCOCC4)cc3)c2)[nH]1
Sort by pIC50, descending. Answer by listing the labels in the order asked for.
b, c, a

[1] CSc1nc(C)c(-c2ccnc(N[C@H]3CC[C@H](NC(=O)C4CCCCC4)CC3)c2)[nH]1 [Compound 48k]
[2] CSc1nc(C)c(-c2ccnc(Nc3ccc(NC(=O)c4ccccc4)cc3)c2)[nH]1 [Compound 48o]
Of 1 versus 2 , which is the one with smaller reported pIC50? Use the label to indicate which entry you chose.
1
(1: 5.65, 2: 6.36)

* * *

test_target: JNK3 (Homo sapiens)
assay_comment: JNK3 enzyme-linked immunosorbent assay
Type: biochemical
condition_parameters: read-out: IC50 ± SD JNK3; ELISA; mean of three experiments (SP600125 n = 16)
measurement_label: IC50 (nM)
Quick note: give the figure in nM, leave out the unit.

Fill in: IC50 of c1cc(-c2[nH]cnc2C2CCCC2)cc(Nc2ccc(N3CCOCC3)cc2)n1 [Compound 18h] is ___
2190
